Test name: method code SF-AS, from DOI: 10.1111/j.2042-7158.1993.tb07096.x, PMID: 7901370
Assay setup: pH 7.4
Readout name: logD

O=S(=O)(NC(=S)NC1CCCCC1)c1cnccc1NC1CCCCCCC1	2.14

(I) O=S(=O)(NC(=S)NC1CCCCC1)c1cnccc1NC1CCCCCC1
(II) O=S(=O)(NC(=S)N1CCCCC1)c1cnccc1NC1CCCCCC1
(Q) Please state the entry with greater logD among I and II . When you have decided, please share the label of that item.
(A) I
(I: 1.81, II: 1.25)

---

Test name: method code SF-AS, from DOI: 10.1111/j.2042-7158.1993.tb07096.x, PMID: 7901370
Assay setup: pH 7.4
Readout name: logD

Use the examples below as a reference point.
CCNC(=S)NS(=O)(=O)c1cnccc1NC1CCCCCCC1	0.96
O=S(=O)(NC(=S)N1CCCCC1)c1cnccc1NC1CCCCCCC1	1.6

(A) CC(C)NC(=S)NS(=O)(=O)c1cnccc1NC1CCCCCCC1
(B) O=S(=O)(NC(=S)N1CCCCC1)c1cnccc1NC1CCCCC1
(Q) Of A versus B , which is the one with smaller reported logD? When you have decided, please share the label of that item.
(A) B
